Where do these numbers come from? They come from patent US20250388673A1.

Target: T1, human BTLA (human, UniProt Q7Z6A9 31-289)
T1 construct: also called hBTLA; HEK293.hBTLA
T1 sequence: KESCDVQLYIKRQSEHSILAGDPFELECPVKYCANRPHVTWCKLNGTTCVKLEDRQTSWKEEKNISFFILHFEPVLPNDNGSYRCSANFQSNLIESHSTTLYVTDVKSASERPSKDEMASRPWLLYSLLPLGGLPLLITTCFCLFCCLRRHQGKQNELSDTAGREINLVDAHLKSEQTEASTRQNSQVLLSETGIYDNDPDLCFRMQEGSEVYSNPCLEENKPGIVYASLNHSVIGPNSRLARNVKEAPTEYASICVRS
Assay: flow cytometry, HEK293 cells overexpressing human BTLA
measure: binding result

Could you tell me which binding result is on file for HFB6-4hz3-hG1 (antibody, human IgG1, V domains shown, Humanized variant of HFB6-4, human IgG1 (hG1)) VH: EVQLVESGGGLVQPGRSLRLSCTTSGFNIKDTYIHWFRQAPGKGLEWVGRNDPANGNTKYTASFKGRATISADGSKSIAYLQMNSLKTEDTAVYYCASYEGYYERFGYWGQGTLVTVSS VL: DIQMTQSPSSLSASVGDRVTITCRSSQSLLDRDGKSYLNWLQQKPGKAPKRLIYLVSKLDSGVPSRFSGSGSGTDFTLTISSLQPEDFATYYCWQDTHFPYTFGQGTKLEIK ?
binds

Moving on to the next binder: HFB6-5hz20-hG1 (antibody, human IgG1, V domains shown, Humanized variant of HFB6-5, human IgG1 (hG1)) VH: QVQLVQSGAEVKKPGASVKVSCKASGVNIKDTYMYWVRQAPGQGLEWIGRIDPANGYTRYAQKFQGRATITADTSTSTVYMELSSLRSEDTAVYYCAVYDGYYESFDVWGQGTLVTVSS VL: DIVMTQSPDSLAVSLGERATINCKSSQSLLDSDGKTYLNWLQQKPGQSPKRLIYLVSKLDSGVPDRFSGSGSGTDFTLTISSVQAEDLAVYYCWQGTLFPRTFGQGTKLEIK
binds

Moving on to the next binder: HFB6-5hz7-hG1 (antibody, human IgG1, V domains shown, Humanized variant of HFB6-5, human IgG1 (hG1)) VH: QVQLVQSGAEVKKPGSSVKVSCKASGVNIKDTYMYWVRQAPGQGLEWIGRIDPANGYARYAQKFQGRATITADESTSTAYMELSSLRSEDTAVYYCAVYDGYYESFDVWGQGTLVTVSS VL: DVVMTQSPLSLPVTLGQPASISCRSSQSLLDSDGKTYLNWLQQRPGQSPRRLIYLVSKRDSGVPDRFSGSGSGTDFTLKISRVEAEDLGVYYCWQGTLFPRTFGQGTKLEIK
binds
